- Test method notes: chemical genetic growth profiling, strain panel (AID 1159580);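 also: tested at 20 µM; growth read once vehicle control cultures reached saturation at 30 °C; 1 = growth at the plate median or of vehicle wells; lower values mean less growth of the strain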
- Study conditions: S. cerevisiae deletion strains, growth OD, locus YFR010W, strain ubp6, active compounds read low
About 2,000 (36%) of roughly 5,500 compounds were called active. Not shown: some 18% with an inconclusive outcome. Some of the results follow.
Property label: normalized growth
Just the number, please.

"C[C@@H]1O[C@@H](O[C@H]2[C@@H](Oc3cc(O)c4c(c3)O[C@H](c3ccc(O)cc3)CC4=O)O[C@H](CO)[C@@H](O)[C@@H]2O)[C@H](O)[C@H](O)[C@H]1O" has a reported normalized growth of 0.954

COC(=O)C1=COC(OC2OC(CO)C(O)C(O)C2O)C2C(C)CC(=O)C12O (stereo not given) has a reported normalized growth of 0.989

"CC(C)N(C(=O)CCl)c1ccccc1" has a reported normalized growth of 0.985

"S=C=NCc1ccccc1" has a reported normalized growth of 0.136

"COc1ccc([C@@H]2CC(=O)c3c(O)cc(O)cc3O2)cc1O" has a reported normalized growth of 0.972
